Tested on: IGROV-1
Assay: Growth inhibition of human IGROV1 cells
Format: functional
Settings: read-out: Log TGI (converted)
attribute-measured: TGI

Below, 4 compounds whose answers are already recorded.
compound | TGI
COc1cc(O)cc2cc3oc(C)cc(=O)c3c(OC)c12 [COMANTHERIN] | > 100 µM
CCCc1cc(=O)c2c(OC)c3c(OC)cc(OC)cc3cc2o1 | > 100 µM
CCCc1cc(=O)c2c(OC)c3c(OC)cc(O)c(Oc4c(O)cc(OC)c5c(OC)c6c(=O)cc(CCC)oc6cc45)c3cc2o1 | 24 µM
COc1cc(O)cc2cc3oc(C)cc(=O)c3c(O)c12 | 23.4 µM

QUERY: Any idea what its TGI is? The compound is CCCc1cc(=O)c2c(O)c3c(OC)cc(O)cc3cc2o1
RESULT: 44.7 µM

###

Test system: HCT-116
Experiment: Growth inhibition of human HCT116 cells
Type: functional
attribute-measured: GI50 (µM)
Numeric only. Scale: µM

smiles-str | system-name | GI50 [µM]
CCCc1cc(=O)c2c(O)c3c(OC)cc(O)cc3cc2o1 | HCT-116 | 18.6
CCCc1cc(=O)c2c(OC)c3c(OC)cc(O)c(Oc4c(O)cc(OC)c5c(OC)c6c(=O)cc(CCC)oc6cc45)c3cc2o1 | HCT-116 | 3.39
CCCc1cc(=O)c2c(OC)c3c(OC)cc(OC)cc3cc2o1 | HCT-116 | 42.7

Here is the next item to consider.
QUERY: Value wanted: GI50 (HCT-116) of entry COc1cc(O)cc2cc3oc(C)cc(=O)c3c(O)c12
RESULT: 14.5

###

Measured GI50, listed per entry.
Tested on: HT-29
Experiment: Growth inhibition of human HT29 cells
Assay type: functional
Numeric only. Scale: µM

Below, 3 compounds whose answers are already recorded.
smiles-str | GI50, µM
CCCc1cc(=O)c2c(OC)c3c(OC)cc(O)c(Oc4c(O)cc(OC)c5c(OC)c6c(=O)cc(CCC)oc6cc45)c3cc2o1 | 13.2
CCCc1cc(=O)c2c(O)c3c(OC)cc(O)cc3cc2o1 | 18.6
CCCc1cc(=O)c2c(OC)c3c(OC)cc(OC)cc3cc2o1 | 26.3

QUERY: Any idea what its GI50 is? The compound is COc1cc(O)cc2cc3oc(C)cc(=O)c3c(O)c12
RESULT: 29.5

###

System: NCI/ADR-RES
Test: Growth inhibition of human NCI/ADR-RES cells
Assay type: functional
attribute-measured: LC50 (concentration killing 50% of cells)

smiles-str | system-name | result
CCCc1cc(=O)c2c(O)c3c(OC)cc(O)cc3cc2o1 | NCI/ADR-RES | > 100 µM
CCCc1cc(=O)c2c(OC)c3c(OC)cc(O)c(Oc4c(O)cc(OC)c5c(OC)c6c(=O)cc(CCC)oc6cc45)c3cc2o1 | NCI/ADR-RES | 100 µM
CCCc1cc(=O)c2c(OC)c3c(OC)cc(OC)cc3cc2o1 | NCI/ADR-RES | > 100 µM
COc1cc(O)cc2cc3oc(C)cc(=O)c3c(O)c12 | NCI/ADR-RES | > 100 µM

Here is the next item to consider.
QUERY: Value wanted: LC50 (concentration killing 50% of cells) (NCI/ADR-RES) of entry COc1cc(O)cc2cc3oc(C)cc(=O)c3c(OC)c12
RESULT: > 100 µM

###

Tested on: RXF 393
Test: Growth inhibition of human RXF393 cells
Type: functional
Measured LC50, listed per entry.

Below, 3 compounds whose answers are already recorded.
compound | system-name | LC50
CCCc1cc(=O)c2c(O)c3c(OC)cc(O)cc3cc2o1 | RXF 393 | > 100 µM
COc1cc(O)cc2cc3oc(C)cc(=O)c3c(OC)c12 [COMANTHERIN] | RXF 393 | > 100 µM
CCCc1cc(=O)c2c(OC)c3c(OC)cc(O)c(Oc4c(O)cc(OC)c5c(OC)c6c(=O)cc(CCC)oc6cc45)c3cc2o1 | RXF 393 | 30.2 µM

QUERY: Any idea what its LC50 is? The compound is COc1cc(O)cc2cc3oc(C)cc(=O)c3c(O)c12
RESULT: > 100 µM

QUERY: Any idea what its LC50 is? The compound is CCCc1cc(=O)c2c(OC)c3c(OC)cc(OC)cc3cc2o1
RESULT: > 100 µM

###

Assay: Inhibition of 1,10-phenanthroline-induced HIF1 activation in PC3 cells by TK-luciferase assay
Assay type: cell-based
Settings: Homo sapiens, PC-3
Measured IC50, listed per entry.

smiles-str | IC50
CCCc1cc(=O)c2c(OC)c3c(OC)cc(O)cc3cc2o1 | 3.7 µM
CCCc1cc(=O)c2c(OC)c3c(OC)cc(O)c(Oc4c(O)cc(OC)c5c(OC)c6c(=O)cc(CCC)oc6cc45)c3cc2o1 | 3.9 µM
COc1cc(O)cc2cc3oc(C)cc(=O)c3c(O)c12 | 2.5 µM
CCCc1cc(=O)c2c(O)c3c(OC)cc(O)cc3cc2o1 | 0.8 µM
CCCc1cc(=O)c2c(OC)c3c(OC)cc(OC)cc3cc2o1 | > 10 µM

QUERY: Any idea what its IC50 is? The molecule is CCCc1cc(=O)c2c(O)cc3cc(O)cc(OC)c3c2o1
RESULT: > 10 µM

QUERY: Any idea what its IC50 is? The molecule is COc1cc(O)cc2cc3oc(C)cc(=O)c3c(OC)c12
RESULT: > 10 µM

###

Measured LC50 (lethal concentration, 50% cell kill), listed per entry.
Tested on: UACC-62
Experiment: Growth inhibition of human UACC62 cells
Type: functional

Below, 2 molecules whose answers are already recorded.
smiles-str | result
CCCc1cc(=O)c2c(OC)c3c(OC)cc(OC)cc3cc2o1 | > 100 µM
COc1cc(O)cc2cc3oc(C)cc(=O)c3c(O)c12 | > 100 µM

Here is the next item to consider.
QUERY: Any idea what its LC50 (lethal concentration, 50% cell kill) is? The molecule is COc1cc(O)cc2cc3oc(C)cc(=O)c3c(OC)c12
RESULT: > 100 µM

###

System: MCF7
Test: Growth inhibition of human MCF7 cells
Format: functional
Details: read-out: Log TGI (converted)
attribute-measured: TGI

Below, 2 molecules whose answers are already recorded.
molecule | result
COc1cc(O)cc2cc3oc(C)cc(=O)c3c(O)c12 | > 100 µM
COc1cc(O)cc2cc3oc(C)cc(=O)c3c(OC)c12 [COMANTHERIN] | > 100 µM

QUERY: Any idea what its TGI is? The molecule is CCCc1cc(=O)c2c(OC)c3c(OC)cc(OC)cc3cc2o1
RESULT: > 100 µM

###

System: HL-60
Assay: Growth inhibition of human HL60 cells
Assay type: functional
attribute-measured: LC50

QUERY: Value wanted: LC50 (HL-60) of entry COc1cc(O)cc2cc3oc(C)cc(=O)c3c(OC)c12
RESULT: > 100 µM

QUERY: Value wanted: LC50 (HL-60) of entry CCCc1cc(=O)c2c(O)c3c(OC)cc(O)cc3cc2o1
RESULT: > 100 µM

QUERY: Value wanted: LC50 (HL-60) of entry CCCc1cc(=O)c2c(OC)c3c(OC)cc(OC)cc3cc2o1
RESULT: > 100 µM

###

Measured TGI, listed per entry.
Test system: UACC-257
Assay: Growth inhibition of human UACC257 cells
Type: functional
Conditions: read-out: Log TGI (converted)

Below, 2 molecules whose answers are already recorded.
molecule | system-name | result
COc1cc(O)cc2cc3oc(C)cc(=O)c3c(OC)c12 [COMANTHERIN] | UACC-257 | > 100 µM
COc1cc(O)cc2cc3oc(C)cc(=O)c3c(O)c12 | UACC-257 | > 100 µM

QUERY: Value wanted: TGI (UACC-257) of entry CCCc1cc(=O)c2c(OC)c3c(OC)cc(OC)cc3cc2o1
RESULT: > 100 µM

###

Measured TGI, listed per entry.
System: OVCAR-5
Assay: Growth inhibition of human OVACAR5 cells
Format: functional
Conditions: read-out: Log TGI (converted)

Below, 2 compounds whose answers are already recorded.
smiles-str | result
CCCc1cc(=O)c2c(OC)c3c(OC)cc(OC)cc3cc2o1 | > 100 µM
COc1cc(O)cc2cc3oc(C)cc(=O)c3c(O)c12 | > 100 µM

Here is the next item to consider.
QUERY: Any idea what its TGI is? The compound is COc1cc(O)cc2cc3oc(C)cc(=O)c3c(OC)c12
RESULT: > 100 µM
